Let's look at some compounds and their measured inhibition at 1 µM.
Species: Mus musculus
protocol notes: Agonistic activity was measured on the electrically stimulated longitudinal muscle of the mouse vas deferens (MVD) at 1 uM concentration
measurement setup: Muscle tissue
Peptide text beside a SMILES is read from it. * marks the point of attachment. Tyr(Nα,Nα-Bn2) = O=C([C@H](Cc1ccc(O)cc1)N(Cc1ccccc1)Cc1ccccc1)*; Tyr(Nα,Nα-allyl2) = C=CCN(CC=C)[C@@H](Cc1ccc(O)cc1)C(=O)*; X4 = O=C([C@H](Cc1ccc(O)cc1)N(CCc1ccccc1)CCc1ccccc1)*; X5 = CCCCCCCCN(CCCCCCCC)[C@@H](Cc1ccc(O)cc1)C(=O)*; X3 = O=C([C@H](Cc1ccc(O)cc1)N(CC1CC1)CC1CC1)*; X1 = CCCCCN(CCCCC)[C@@H](Cc1ccc(O)cc1)C(=O)*; X2 = CCCN(CCC)[C@@H](Cc1ccc(O)cc1)C(=O)*
Only the number, expressed in %, is required.

[in] Reported inhibition at 1 µM, compound CC(C)C[C@H](NC(=O)[C@H](Cc1ccccc1)NC(=O)CNC(=O)CNC(=O)[C@H](Cc1ccc(O)cc1)N(CC1CC1)CC1CC1)C(=O)O (X3-GGFL-OH) : ____
[out] 27.3

Others:
[in] Reported inhibition at 1 µM, compound CCCCCCCCN(CCCCCCCC)[C@@H](Cc1ccc(O)cc1)C(=O)NCC(=O)NCC(=O)N[C@@H](Cc1ccccc1)C(=O)N[C@@H](CC(C)C)C(=O)O (X5-GGFL-OH) : ____
[out] 39.2

[in] Thanks! And C=CCN(CC=C)[C@@H](Cc1ccc(O)cc1)C(=O)NCC(=O)NCC(=O)N[C@@H](Cc1ccccc1)C(=O)N[C@@H](CC(C)C)C(=O)O ({Tyr(Nα,Nα-allyl2)}-GGFL-OH) ?
[out] 10

[in] Thanks! And CC(C)C[C@H](NC(=O)[C@H](Cc1ccccc1)NC(=O)CNC(=O)CNC(=O)[C@H](Cc1ccc(O)cc1)N(Cc1ccccc1)Cc1ccccc1)C(=O)O ({Tyr(Nα,Nα-Bn2)}-GGFL-OH) ?
[out] 11.4

[in] Thanks! And CCCCCN(CCCCC)[C@@H](Cc1ccc(O)cc1)C(=O)NCC(=O)NCC(=O)N[C@@H](Cc1ccccc1)C(=O)N[C@@H](CC(C)C)C(=O)O (X1-GGFL-OH) ?
[out] 20.4

[in] Thanks! And CC(C)C[C@H](NC(=O)[C@H](Cc1ccccc1)NC(=O)CNC(=O)CNC(=O)[C@H](Cc1ccc(O)cc1)N(CCc1ccccc1)CCc1ccccc1)C(=O)O (X4-GGFL-OH) ?
[out] 60.5

[in] Thanks! And CCCN(CCC)[C@@H](Cc1ccc(O)cc1)C(=O)NCC(=O)NCC(=O)N[C@@H](Cc1ccccc1)C(=O)N[C@@H](CC(C)C)C(=O)O (X2-GGFL-OH) ?
[out] 11.9

====

Species: Cavia porcellus
protocol notes: Agonistic activity was measured on the electrically stimulated longitudinal muscle of the guinea pig ileum (GPI) at 1 uM concentration
measurement setup: Muscle tissue
Peptide text beside a SMILES is read from it. * marks the point of attachment. Tyr(Nα,Nα-Bn2) = O=C([C@H](Cc1ccc(O)cc1)N(Cc1ccccc1)Cc1ccccc1)*; Tyr(Nα,Nα-allyl2) = C=CCN(CC=C)[C@@H](Cc1ccc(O)cc1)C(=O)*; X4 = O=C([C@H](Cc1ccc(O)cc1)N(CCc1ccccc1)CCc1ccccc1)*; X5 = CCCCCCCCN(CCCCCCCC)[C@@H](Cc1ccc(O)cc1)C(=O)*; X3 = O=C([C@H](Cc1ccc(O)cc1)N(CC1CC1)CC1CC1)*; X1 = CCCCCN(CCCCC)[C@@H](Cc1ccc(O)cc1)C(=O)*; X2 = CCCN(CCC)[C@@H](Cc1ccc(O)cc1)C(=O)*
observed property: inhibition at 1 µM
Please state the value followed by its unit.

Here are 4 compounds together with their reported answers.
[in] Reported inhibition at 1 µM, compound CCCN(CCC)[C@@H](Cc1ccc(O)cc1)C(=O)NCC(=O)NCC(=O)N[C@@H](Cc1ccccc1)C(=O)N[C@@H](CC(C)C)C(=O)O (X2-GGFL-OH) : ____
[out] -2.6%

[in] Thanks! And C=CCN(CC=C)[C@@H](Cc1ccc(O)cc1)C(=O)NCC(=O)NCC(=O)N[C@@H](Cc1ccccc1)C(=O)N[C@@H](CC(C)C)C(=O)O ({Tyr(Nα,Nα-allyl2)}-GGFL-OH) ?
[out] -6.7%

[in] Thanks! And CC(C)C[C@H](NC(=O)[C@H](Cc1ccccc1)NC(=O)CNC(=O)CNC(=O)[C@H](Cc1ccc(O)cc1)N(Cc1ccccc1)Cc1ccccc1)C(=O)O ({Tyr(Nα,Nα-Bn2)}-GGFL-OH) ?
[out] 1.9%

[in] Thanks! And CCCCCN(CCCCC)[C@@H](Cc1ccc(O)cc1)C(=O)NCC(=O)NCC(=O)N[C@@H](Cc1ccccc1)C(=O)N[C@@H](CC(C)C)C(=O)O (X1-GGFL-OH) ?
[out] 15.9%

Others:
[in] Reported inhibition at 1 µM, compound CC(C)C[C@H](NC(=O)[C@H](Cc1ccccc1)NC(=O)CNC(=O)CNC(=O)[C@H](Cc1ccc(O)cc1)N(CCc1ccccc1)CCc1ccccc1)C(=O)O (X4-GGFL-OH) : ____
[out] 14.7%

[in] Thanks! And CCCCCCCCN(CCCCCCCC)[C@@H](Cc1ccc(O)cc1)C(=O)NCC(=O)NCC(=O)N[C@@H](Cc1ccccc1)C(=O)N[C@@H](CC(C)C)C(=O)O (X5-GGFL-OH) ?
[out] 8.1%

[in] Thanks! And CC(C)C[C@H](NC(=O)[C@H](Cc1ccccc1)NC(=O)CNC(=O)CNC(=O)[C@H](Cc1ccc(O)cc1)N(CC1CC1)CC1CC1)C(=O)O (X3-GGFL-OH) ?
[out] 2.2%
